- study.target: KCNJ3 WT KACh channel (Homo sapiens, UniProt P48544+P48549)
- Sequence (P48549 whole entry): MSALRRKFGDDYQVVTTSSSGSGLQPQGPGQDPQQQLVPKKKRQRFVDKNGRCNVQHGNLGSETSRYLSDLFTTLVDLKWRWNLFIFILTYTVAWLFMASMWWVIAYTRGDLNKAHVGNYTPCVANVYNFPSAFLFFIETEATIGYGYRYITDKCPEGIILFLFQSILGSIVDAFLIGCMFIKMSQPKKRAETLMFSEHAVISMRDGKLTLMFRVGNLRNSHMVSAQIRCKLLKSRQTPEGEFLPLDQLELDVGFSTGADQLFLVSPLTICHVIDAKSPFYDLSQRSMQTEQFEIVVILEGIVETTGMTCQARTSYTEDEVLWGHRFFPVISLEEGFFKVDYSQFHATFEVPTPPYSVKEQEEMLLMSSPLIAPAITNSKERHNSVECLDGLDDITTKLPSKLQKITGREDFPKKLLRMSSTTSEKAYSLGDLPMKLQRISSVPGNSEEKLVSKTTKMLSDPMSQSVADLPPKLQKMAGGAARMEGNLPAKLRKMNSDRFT
- Sequence (P48544 whole entry): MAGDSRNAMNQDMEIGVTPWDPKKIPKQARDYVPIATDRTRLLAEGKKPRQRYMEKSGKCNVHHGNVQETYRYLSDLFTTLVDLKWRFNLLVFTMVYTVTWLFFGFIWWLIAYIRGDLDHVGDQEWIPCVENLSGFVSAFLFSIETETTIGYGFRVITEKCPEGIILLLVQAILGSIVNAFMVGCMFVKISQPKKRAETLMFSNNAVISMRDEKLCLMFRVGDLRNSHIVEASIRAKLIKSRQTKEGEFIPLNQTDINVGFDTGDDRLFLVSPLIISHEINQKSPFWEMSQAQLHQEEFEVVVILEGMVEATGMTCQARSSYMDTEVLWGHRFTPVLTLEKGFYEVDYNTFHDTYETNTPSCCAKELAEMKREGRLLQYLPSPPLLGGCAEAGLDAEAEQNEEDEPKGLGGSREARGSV
- protocol.summary: two-electrode voltage clamp, KACh channel expressed in Xenopus laevis oocytes (wild type)
- experimental.setup: wild type, n=13, read-out: IC50 value, inhibition of whole cell current
recorded.endpoint: IC50 (µM)
Answer in µM, number only, no unit symbol.

The compound CC1(C)Oc2cc([N+](=O)[O-])c(N)cc2[C@H](NCCc2ccccc2)[C@H]1O [compound (II)] showed IC50 equal to 0.23
